- Tested on: SEM cells
- Test: cell viability relative to DMSO control; higher = less cytotoxic
- Recorded conditions: HPLM + 10% dialyzed FBS; 48 h; 0.0211 µM
Quick reference for cell viability among some compounds

{"columns": ["Compound", "Tested system", "Units label", "cell viability"],
 "data": [
  ["O=C(CCc1ccc(O)cc1)c1c(O)cc(O)cc1O[C@@H]1O[C@H](CO)[C@@H](O)[C@H](O)[C@H]1O", "SEM cells", "%", 107],
  ["CCN1C[C@]2(OC(=O)c3ccccc3NC(C)=O)CC[C@H](OC)[C@@]34[C@@H]2C[C@@H]([C@@H]13)[C@@]1(O)C[C@H](OC)[C@H]2C[C@@H]4[C@]1(O)[C@H]2OC", "SEM cells", "%", 105],
  ["CC(C)NCC(O)c1ccc(NS(C)(=O)=O)cc1 (stereo not given)", "SEM cells", "%", 106],
  ["CCCCCCCCc1ccc(CCC(N)(CO)CO)cc1", "SEM cells", "%", 111],
  ["Cc1ccc(C(=O)c2cc(O)c(O)c([N+](=O)[O-])c2)cc1", "SEM cells", "%", 81.4],
  ["COC1(C[S+]([O-])c2ccccc2)CCN(CCc2c[nH]c3ccc(F)cc23)CC1 (stereo not given)", "SEM cells", "%", 104],
  ["CCCCCCCCCCCCCCCCCCOP(=O)([O-])OC1CC[N+](C)(C)CC1", "SEM cells", "%", 88.7],
  ["CNCC(O)C(O)C(O)C(O)CO.O=C(O)c1ccc(-c2cc3cccnc3c(-c3ccc4nonc4c3)n2)cc1", "SEM cells", "%", 115],
  ["CC(C)C[C@H](NC(=O)[C@H](Cc1ccccc1)NC(=O)c1cnccn1)B(O)O", "SEM cells", "%", 46.6],
  ["CN(C)CCN(Cc1ccc(Cl)cc1)c1ccccn1.Cl", "SEM cells", "%", 80.1]
]}

* * *

- Tested on: SEM cells
- Test: cell viability relative to DMSO control; higher = less cytotoxic
- Recorded conditions: HPLM + 10% dialyzed FBS; 48 h; 0.0632 µM

{"columns": ["Structure as smiles", "cell viability, %"],
 "data": [
  ["CC1(C)CC(O)CC(C)(C)N1[O]", 81.6],
  ["Cc1ccc(-c2ncn(-c3ccc(Nc4nccc(-c5cccc(N6CCOCC6)c5)n4)cc3)n2)cn1", 70.9],
  ["N[C@@H](CC(=O)N1CCn2c(nnc2C(F)(F)F)C1)Cc1cc(F)c(F)cc1F", 105],
  ["NC\\1=N\\C(=O)N(\\C=C1)[C@H]\\2[C@H](O)[C@H](O)C(=C2F)\\CO", 92.2],
  ["CCCCN(CCCC)C(=O)CN1C[C@H](c2ccc3c(c2)OCO3)[C@@H](C(=O)O)[C@@H]1c1ccc(OC)cc1", 103],
  ["NCC(=O)Nc1ccc(-n2nc(C(F)(F)F)cc2-c2ccc3c(ccc4ccccc43)c2)cc1", 120],
  ["Cc1c(C(=O)Nc2cccc(C(F)(F)F)c2)cc(-c2ccccc2)n1CCCN1CCOCC1", 111],
  ["O=c1[nH]cnc2c1ncn2[C@H]1CC[C@@H](CO)O1", 88.3],
  ["CN(C)CCCNC(=O)c1ccc(-c2cc(O)c3ncccc3c2)cc1", 99.7]
]}
